assay: Cytotoxicity against C8166 cells by MTT method
Type: cell-based
appliedConditions: human
Field: label. Allowed values: true (CC50 < 200 µM) or false (CC50 >= 200 µM).

{"compound": "COc1cc([C@H]2O[C@H](c3cc(OC)c4c(c3)OCO4)[C@@H](COC(C)=O)[C@@H]2CO)cc(OC)c1O", "category": "false"}
{"compound": "Cc1cn([C@H]2C[C@H](N=[N+]=[N-])[C@@H](CO)O2)c(=O)[nH]c1=O", "category": "false"}
{"compound": "COc1cc([C@@H](c2cc(OC)c3c(c2)OCO3)[C@@H]2COC(=O)[C@H]2C)cc(OC)c1OC", "category": "true"}
{"compound": "COc1cc(C(c2cc(OC)c3c(c2)OCO3)[C@@H]2COC(=O)[C@H]2C)cc2c1OCO2", "category": "true"}
{"compound": "COc1cc(C(c2cc(OC)c(OC)c(OC)c2)[C@@H]2COC(=O)[C@H]2C)cc(OC)c1OC", "category": "true"}
{"compound": "COc1cc(C(c2cc(OC)c(OC)c(OC)c2)C2COC(=O)C2C)cc(O)c1OC (stereo unspecified)", "category": "true"}

====

Tested on: Human immunodeficiency virus 1
assay: Antiviral activity against on HIV1 3b infected C8166 cells assessed as syncytial cell formation after 3 days
Type: functional, organism-based
appliedConditions: Human immunodeficiency virus 1, 3b, C8166, 72 h
Criterion: EC50 strictly less than 5 µM. Met: true (1). Not met: false (0).

{"molecule": "COc1cc(C(c2cc(OC)c3c(c2)OCO3)[C@@H]2COC(=O)[C@H]2C)cc2c1OCO2", "testSystem": "Human immunodeficiency virus 1", "category": "false (0)"}
{"molecule": "COc1cc([C@@H](c2cc(OC)c3c(c2)OCO3)[C@@H]2COC(=O)[C@H]2C)cc(OC)c1OC", "testSystem": "Human immunodeficiency virus 1", "category": "false (0)"}
{"molecule": "COc1cc(C(c2cc(OC)c(OC)c(OC)c2)[C@@H]2COC(=O)[C@H]2C)cc(OC)c1OC", "testSystem": "Human immunodeficiency virus 1", "category": "false (0)"}
{"molecule": "COc1cc([C@H]2O[C@H](c3cc(OC)c4c(c3)OCO4)[C@@H](COC(C)=O)[C@@H]2CO)cc(OC)c1O", "testSystem": "Human immunodeficiency virus 1", "category": "false (0)"}
{"molecule": "Cc1cn([C@H]2C[C@H](N=[N+]=[N-])[C@@H](CO)O2)c(=O)[nH]c1=O", "testSystem": "Human immunodeficiency virus 1", "category": "true (1)"}
{"molecule": "COc1cc(C(c2cc(OC)c(OC)c(OC)c2)C2COC(=O)C2C)cc(O)c1OC (stereo unspecified)", "testSystem": "Human immunodeficiency virus 1", "category": "false (0)"}

Recorded values, source ChEMBL document CHEMBL1142103.
